# procedureDetails: yeast display, Sf9 membrane polyspecificity reagent, FACS + sequencing; frameworks hold sequencing errors
assayEndpoint: polyreactivity (PSR sort gate)

Please review the entries below; each comes with its answer.
>>> value("QVQLVESGGGLVQAGGSLRLSCAASGLIFRYYAMGWYRQAPGKERELVAVINYSGGRTYYADSVKGRFTISRDNAKNTVYLQMNSLKPEDTAVYYCAASFASKYEYWGQGTQVTVSS")
"high polyreactivity"
>>> value("QVQLVESGGGLVQAGGSLRLSCAASGYIFQPYAMGWYRQAPGKERELVAAISWRGGSTYYADSVKGRFTISRDNAKNTVYLQMNSLKPEDTAVYYCAVDAWDTTHVYEQGAERDSWGQGTQVTVSS")
"low polyreactivity"
>>> value("QVKLVESGGGLVQAGGSLRLRCAASGIIFDYYAMGWYRQAPGKERELVAAISKRGGSTYYADSVKGRFTISRDNAKNTVYLQMNSLKPEDTAVYYCAAVYAREAKRYDYWGQGTQVTVSS")
"high polyreactivity"
>>> value("QVQLVESGGGLVQAGGSLRLSCAASGSNFLKNAMGWYRQAPGKERELVAAITSGGSTYYADSVKGRFTISRDNAKNTVYLQMNSLKPEDTAVYYCADETSPSWYTWVTYDYWGQGTQVTVSS")
"high polyreactivity"
>>> value("QVQLVESGGGLVQAGGSLRLSCAASGRTFASYAMGWYRQAPGKERELVAGITSGGNTYYADSVKGRFTISRDNAKNTVYLQMNSLKPEDTAVYYCAADRVYLGLFRYEYWGQGTQVTVSS")
"high polyreactivity"

If you can, please state the reported polyreactivity (PSR sort gate) value of QVHLVESGGGLVQAGGSLCLSCAASGSIFINAMGWYRQAPGKERELVATIRWRGGTTYYADSVKGRFTISRDNAKNTVYLQMNSLKPEDTAVYYCAARVHSVHYPYYYWGQGTQVTVSS . low polyreactivity

If you can, please state the reported polyreactivity (PSR sort gate) value of QVHLVESGGGLVQAGGSLRLSCAASGSTFVHYAMGWYRQAPGKERELVADITTGDITNYADSVKGRFTISRDNAKNTVYLQMNSLKQEDTAVYSCNARTRYITSLHQYSLDYWGQGSQVTVSS . low polyreactivity

If you can, please state the reported polyreactivity (PSR sort gate) value of QVQLVESGGGLVQAGGSLRLSCAASGFIFHGYTMGWYRQAPGKERELVAGISFTGGSTYYADSVKGRFTISRDNAKNTVYLQMNSLKPEDTAVYYCAATYSSYWARYYYWGQGTQVTVSS . high polyreactivity

---

# procedureDetails: yeast display, Sf9 membrane polyspecificity reagent, FACS + sequencing; frameworks hold sequencing errors
assayEndpoint: polyreactivity (PSR sort gate)

>>> value("QVQLEESGGGLVQAGGSLRLSCAASGSTFTGYAMGWYRQAPGKERELVAAISISGGRTFYADSVKVRFTISRDNAKNTVYLQMNSLKPEDTAVYYCAAYLRGSKYSFDYWGQGTQVTVSS")
"high polyreactivity"
>>> value("QVQLVESGGGLVQAGGSLRLSCAASGRTIWYYAMGWYRQAPGKERELVASITRSGGSTYADSVKGRFTISRDNAKNTVDLQMNSLKPEDTAVYYCAATRPRIPVYQNNYGYWGQGSQVTVSS")
"high polyreactivity"
>>> value("KVQLVESGGGLVQAGGSLRLSCAASGSNFVYNAMGWYRQAPGKEREFVAAISGSGGSTYYADSVKGRFTISRDNAKNTVYLQMNSLKPEDTAVYYCATAGRYGRYRTYPYRSKYDYWGQGTQVTVSS")
"high polyreactivity"
>>> value("QVQLVESGGGLVQAGGSLRLSCAASGRTFQYYAMGWYRQAPGKERELVARINRSGGSTYYADSVKGRFTISRDNAKNTVYLQMNSLKPEDTAVYYCAADYLSRSPAYEHYYWGQGTQVTVSS")
"high polyreactivity"

---

# procedureDetails: yeast display, Sf9 membrane polyspecificity reagent, FACS + sequencing; frameworks hold sequencing errors
assayEndpoint: polyreactivity (PSR sort gate)

>>> value("QVQLVESGGGLVQAGGSLRLSCAASGFTFQYYAMGWYRQAPGKERELVAAINWSGGRTYYADSVKGRFTISRDNAKNTVYLQMNSLKPEDTAVYYCAATRSFSGGYGYVSYDYWGQGTQVTVSS")
"high polyreactivity"
>>> value("QVQLVESGGGLVQAGGSLRLSCAASGLTFADYAMGWYRQAPVKERELVAAISSSDTSTYYADSVKGRFTISRDNAKNTVYLQMNSLKPEDTAVYYCAADEGYVWPYYGWGFGKYDYWGQGTQVTVSS")
"low polyreactivity"
>>> value("QVQLVESGGGLVQAGGSLRLSCAASGRSFNYNTMGWYRQAPGKERELVAAINKGGTRTYYADSVKGRFTISRDNAKNTVYLQMNSLKPEDTAVYYCAARLYSYDYWGQGTQVTVSS")
"high polyreactivity"
>>> value("QVQLVESGGGLVQAGGSLRLSCAASGSIFFYYAMGWYRQAPGKERELVAAIRSGTSTNYADSVKGRFTISRDNAKNTVYLQMNSLKPEDTAVYYCAARFPGGGYGMDYWGQGTQVTVSS")
"low polyreactivity"

Next sequence, please.
If you can, please state the reported polyreactivity (PSR sort gate) value of QVQLVESGGGLVQAGGSLRLSCAASGSTFATYAMGWYRQAPGKERELVAVITLGGRTYYADSVKGRFTISRDNAKNTVYLQMNSLKPEDTAVYYCAAKAYTYYARIGFDYWGQGTQVTVSS . high polyreactivity

---

# procedureDetails: yeast display, Sf9 membrane polyspecificity reagent, FACS + sequencing; frameworks hold sequencing errors
assayEndpoint: polyreactivity (PSR sort gate)

>>> value("QVQLVESGGGLVQAGGSLRLSCAASGSTFACNGMGWYRQAPGKERELVAGIDVTGGSTYYADSVKGRFTISRDNAKNTDYLQMNSMKPEDTAVYYCNARYVYHSSFAGFDYWGQGTQVTVSS")
"low polyreactivity"
>>> value("QVQLVESGGGLVQAGGSLRLSCAASGRTFSRYAMGWYRQAPGKERELVAAITWSGGRTYYADSVKGRFTISSDNAKNTVYLQMNSLKPEDTAVYYCAASYRCYKHADPLYNYWGQGTQVTVSS")
"low polyreactivity"
>>> value("QVQLVESGGGLVQAGGSLRLSCAASGSTFVRYAMGWYRQAPGKERELVAAISKSGGSTYYADSVKGRFTISRDNAKNTVYLQMNSLKPEDTAVYFCNADVYKNSKFRIMGYWGQGTQVTVSS")
"low polyreactivity"
>>> value("QDQLVHSGGGLVQSGGSLRISCAASGFTFYLYGMGRYRQAPGKERDLDAAIDSTGSTNYADSVKGRFTISRDNAKNTVYLQMNSLKPEDTAVYYCAADFYLYYFRSPYDYWGQGTQVTVSS")
"high polyreactivity"
>>> value("QVQLVESGGGLVQAGGSLRLSCAASGFTFDFYAMGWYRQAPGKERELVATISYSGASTYYADSVKGRFTISRDNAKNTIYLQLNSLKPEDTAVYYCNAESSYYYGTAAYEYWGQGTQVTVSS")
"low polyreactivity"
>>> value("QVQLEESGGGLVQAGGSLRLSCAGSGFTFGVYAMGWYRQAPGKERELVAVIRGSGGSTYYADSVKGRFTISRDKAKNTVYLQMNSLKPEDTAGYYCAARRYQYVWSLYNYWGQGTQVTVSS")
"high polyreactivity"

If you can, please state the reported polyreactivity (PSR sort gate) value of QVQLEESGGGLVQAGGSLRLSCAAYGIIFRTYDMGWYRQAPGKEREFVAAINSDCSTYYADSVKGRFTFSRDNAKNSVYLQMISVKTEDTAVYYCASDHYYAGAWYYFWGQGTQVTVSS . high polyreactivity

If you can, please state the reported polyreactivity (PSR sort gate) value of QVQLVESGGGLVQAGGSLRLSCAASGFIFRYYAMGWYRQAPGKERELVAAITSRGSSTYYADSVKGRFTISRDNAKNTVYLQMNSLKPEDTAVYYCAARSSATRSWIASRPGYRYNYWGQGTQVTVSS . high polyreactivity

If you can, please state the reported polyreactivity (PSR sort gate) value of QVQLVESGGGLVQAGGSLRLSCAASGLIFSYYAMGWYRQAPGKERELVAAISRGGSTNYADSVKGRFTISRDDAKNTVYLQMNSLKPEDTAVYYCAARWQWLNGYYYWGQGTQVTVSS . high polyreactivity

If you can, please state the reported polyreactivity (PSR sort gate) value of QVQLVESGGVLVQAGGSLRLSCAASGSTFSVNVMGWSRQAPGKERELVAAINSGGSTDYADSVKGRLTISRDNAKNTVYLQMNSLKPEYTAVYYCNAYDIVIYDYWGQGTQVTVSS . low polyreactivity

If you can, please state the reported polyreactivity (PSR sort gate) value of QVQLVESGGGLVHAGGSLRLSCAASGFIFARYAMGWYRQAPGKERELVAAINLSGGSTYYADSVKGRFTISRDNAKNTVYLQMNSLKPEDTAVYYCAATDPPYDAFEAKIDYQDFDYWGQGTQVTVSS . low polyreactivity

If you can, please state the reported polyreactivity (PSR sort gate) value of QVQLVESGGGLVHAGCSLRLSCAASGLIFGSYSMGWYRQAPGKERELVAAISRSGGSTYYADSVKGRFTISRDNAKNTVYFLMNSLKPEDTAVYYCAARGYPLGIGRIKRNYWGQGKQVTVSS . high polyreactivity

If you can, please state the reported polyreactivity (PSR sort gate) value of QVQLVESGGGLVQAGRSLRLSCAASGFTFGYYAMGWYRQAPGKERELVASISITAGSTYYADSVKGRFTISRDNAKNTVYLQMNSLTPEDTAVYYCAAKRRTRQSYYTEYYWGQGTQVTVSS . high polyreactivity

If you can, please state the reported polyreactivity (PSR sort gate) value of QVQLVESGGGLVQAGGSLRLSCAASGSIFTPYAMGWYRQAPGKERELVATISWSGGRTYYADSVKGRFTISRDNAKNTVYLQMNSLKPEDTAVYYCNADVLKYKFDYWGQGTQVTVSS . high polyreactivity

If you can, please state the reported polyreactivity (PSR sort gate) value of QVQLVESGGGLVQAGGSLRLSCAASGRTFSYYAMGWYRQAPGKERELVARITYRGGRTYYADSVKGRFTISRDNAKNTVYLQMNSLKPEDTAVYYCNADAINKRGGLDYWGQGTQVTVSS . high polyreactivity

If you can, please state the reported polyreactivity (PSR sort gate) value of QVQLVESGGGLVQAGGSLRLSCAASGSTFYYYAMGWYRQAPGKERELVASITTGGGSTYYADSVKGRFTISRDNAKNTVYLQMNSLKPEDTAVYYCAAALAYYYWWYDYWGQGTQVTVSS . low polyreactivity

If you can, please state the reported polyreactivity (PSR sort gate) value of QVQLVESGGGLVQAGGSLRLSCAASGSILSGYAMGWYRQAPGKERELVAAISWSGGSTYYADSVKGRFTISRDNAKNTVYLQMNSLKPEDTAVYYCAAASVPWGGYYWGQGTQVTVSS . low polyreactivity

If you can, please state the reported polyreactivity (PSR sort gate) value of QVQLVESGGGLVQAGGSLRLSCAASVLTFITNVMVWYRQAPGKERELVAVISSRGGTTYYADSVKGRFTISRDNAKNTVYLQMNSLKPEETAVYYCNRVRSPKYDWGQGTQVTVSS . high polyreactivity

If you can, please state the reported polyreactivity (PSR sort gate) value of QVQLVESGGGIVQAGGSLPLICAASGFTFDWYALGWYRQAPGKERELVAAITTSGGTTYYADSVKGRFTMSRDNAKITVYLQMNSLKPEDTAVFYCAADADTDVFYILQEYDYWGQGTQVTVSS . low polyreactivity

If you can, please state the reported polyreactivity (PSR sort gate) value of QVQLVESGGGLVQAGGSLRLSCAASGRNLHYYSMGWYRQAPGKEWELVAAITWSGGSTYYADSVNGRFTISRDNAKNTVYLQMNSLKPVDTSVYYCAARGTDWGQGTQVTVSS . low polyreactivity

If you can, please state the reported polyreactivity (PSR sort gate) value of QVQLVESGGGLVQAGGSLRLSCAASGGIFYLNAMGWYRQAPGKERELVAAISSGVSTYYADSVKGSFTISRDNAKNTVYLKMNSLKPEDTAVYYCNADYNYPAWVGSWWDYDYWGQGTQVTVTS . low polyreactivity
